target: carbohydrate recognition domain of the protein FimH (M1-T179) (Escherichia coli, UniProt P08191); construct: domain of the protein FimH (M1-T179) with an uncleavable C-terminus 6-His tag; made in house; host or cells: E. coli (pET21b plasmid); assay: Thermal Shift Assay; type: binding, E. coli; settings: 5.6 μM protein, 56 μM ligand; DMSO control as reference; ± standard error of the mean (number of repeats)
Sequence (P08191 22-179 limits assumed): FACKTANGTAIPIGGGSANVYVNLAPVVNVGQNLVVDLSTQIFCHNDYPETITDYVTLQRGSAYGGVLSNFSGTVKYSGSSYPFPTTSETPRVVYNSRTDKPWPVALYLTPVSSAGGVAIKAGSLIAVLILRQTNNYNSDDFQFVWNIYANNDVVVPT
Recorded endpoint: Delta Thermal melt

Known results for molecules:
[
  {
    "Given smiles": "COC(=O)c1cc(C(=O)OC)cc(-c2ccc(O[C@H]3O[C@H](CO)[C@@H](O)[C@H](O)[C@@H]3F)cc2)c1",
    "Delta Thermal melt": "4.39 ± 0.11 (2) ° C."
  },
  {
    "Given smiles": "OC[C@H]1O[C@H](Oc2ccc(Br)cc2C(F)(F)F)[C@@H](F)[C@@H](O)[C@@H]1O",
    "Delta Thermal melt": "3.2 (1) ° C."
  },
  {
    "Given smiles": "CNC(=O)c1cccc(-c2ccc(O[C@H]3O[C@H](CO)[C@@H](O)[C@H](O)[C@@H]3F)c(OC)c2)c1",
    "Delta Thermal melt": "4 (1) ° C."
  },
  {
    "Given smiles": "CNC(=O)c1cccc(-c2ccc(O[C@H]3O[C@H](CF)[C@@H](O)[C@H](O)[C@@H]3O)cc2)c1",
    "Delta Thermal melt": "0.06 ± 0.11 (2) ° C."
  },
  {
    "Given smiles": "CNC(=O)c1cccc(-c2ccc(O[C@H]3O[C@H](CO)[C@@H](O)[C@H](O)[C@]3(C)O)c(C)c2)c1",
    "Delta Thermal melt": "10.71 ± 0 (2) ° C."
  }
]

As a next step, examine the molecule that follows.
// Delta Thermal melt lookup, molecule = Cc1cc(Br)ccc1O[C@H]1O[C@H](CO)[C@@H](O)[C@H](O)[C@@H]1F , result: 3 (1) ° C.

* * *

// reported In vitro mice feces stability - % Parent remaining at 6 h per item
test: Mouse Feces Stability Assay; format: in vitro ADME; settings: 100 uM in mouse feces supernatant, pH 6.5, 37° C.
All answers are understood in %, so give the number only.

As a guide, the following entries are already answered.
[
  {
    "Given smiles": "CNC(=O)c1cccc(-c2ccc(O[C@H]3O[C@H](CO)[C@@H](O)[C@H](O)[C@@H]3F)c(C)c2)c1",
    "Value": 108
  },
  {
    "Given smiles": "CNC(=O)c1cccc(-c2ccc(O[C@H]3O[C@H](CO)[C@@H](O)[C@H](O)[C@@H]3F)c(C(F)(F)F)c2)c1",
    "Value": 108
  },
  {
    "Given smiles": "CNC(=O)c1cccc(-c2ccc(O[C@H]3O[C@H](CF)[C@@H](O)[C@H](O)[C@@H]3O)cc2)c1",
    "Value": 118
  }
]

Per the records, this molecule ( CNC(=O)c1cccc(-c2ccc(O[C@H]3O[C@H](CO)[C@@H](O)[C@H](O)[C@@H]3O)c(C)c2)c1 ) has In vitro mice feces stability - % Parent remaining at 6 h equal to 0

Reference source for all entries: patent US9890176B2
